Reported reverse-splicing fitness values are given for each entry in this list.
B1: Azoarcus group I ribozyme (parent)
chain: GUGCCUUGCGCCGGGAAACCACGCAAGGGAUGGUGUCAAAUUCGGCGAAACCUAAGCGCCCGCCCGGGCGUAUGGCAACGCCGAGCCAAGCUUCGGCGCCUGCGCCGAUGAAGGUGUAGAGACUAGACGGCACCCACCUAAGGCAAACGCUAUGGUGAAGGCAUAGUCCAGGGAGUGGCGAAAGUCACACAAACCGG

- Variants of: B1
- Assay details: reverse-splicing fitness (ratio to wild type); higher = more active; in vitro selection; Mg2+ level not given

Mutant id | reverse-splicing fitness
C82A A120G A145G C150U C169G U176C | 0.0199
C82G A111U A120C A145U C150G C169U U176C | 0.0123
C82A A111G A120U A145C C169U U176A | 0.00302
C82U A111C A120G A145G C150A C169A U176C | 0.0218
C82G A145C C150U C169U U176G | 0.00436
C82U A120C A145C C150U C169U U176A | 0.0137
C82A A111U A120C C150U C169G U176A | 0.0159
C82U A111U C150A C169G | 0.00941
C82G A111C A145G C169A U176A | 0.0222
C82A A111C A120G A145U C150A | 0.00771
C82G A120U C150A C169A U176C | 0.0035
C82G A111G A120C A145C C150A C169G | 0.00899
C82U A111C A120G A145G C169A | 0.0105
A120C A145G C150U U176A | 0.626
C82U A111C A145C C150A C169A U176A | 0.0134
C82U A111U A120U A145C C169A U176A | 0.00226
C82A A120C C150U C169A U176C | 0.0165
C82U A111G A120G A145G C150G C169U U176G | 0.00643
C82A A111G A120G A145G C150U C169G U176A | 0.0157
C82G A111C A145C C150U U176A | 0.0341
C82U A111C A145G C150A C169A U176C | 0.0197
C82U A120G C150A C169U U176A | 0.0211
C82G A111U A120G C150U C169A | 0.0112
C82A A111C A120U A145G C150G C169U U176C | 0.00842
C82G A111G C150U C169A U176C | 0.0178
C82U A120G A145G C169U U176C | 0.0187
A145G C150G C169G | 0.0446
A111C A120G A145C C150A C169G U176C | 0.0161
A145G C169A | 0.172
C82G A111U A120G C150G C169U U176C | 0.0123
A120C A145U C150U C169U U176C | 0.16
C82U A120C A145U C150A C169U U176C | 0.0164
A111U A120C A145G C150A U176G | 0.013
A111U A120U A145C C150A U176G | 0.00552
C82U A111C A120G A145G C150A U176G | 0.00528
C82A A111G A120C C150G C169A U176A | 0.0116
C82G A111U A145U C150G C169G U176A | 0.0083
A145C C169G | 0.26
C82U A111C A145G C150G C169G | 0.00689
A145C C169G U176C | 0.116
A111G A120C A145G C150U C169G U176A | 0.0195
C82G A111C A120G C150A | 0.0103
C82A A111C A120U A145C C150G C169A U176G | 0.00275
C82A A111G A120U A145C C150A C169U U176C | 0.00198
C82A A120G A145C C150G U176G | 0.00304
C82G A111U A145U C169A U176C | 0.011
